# key: entry, value: activation at 3 µM
# EXPERIMENTAL_SYSTEM: human GLP1R (Homo sapiens, UniProt P43220)
# Construct: expressed in transfected cells; host or cells: CHO cells (ATCC), transient transfection with pCMV-human GLP1R
# Sequence (P43220 24-463): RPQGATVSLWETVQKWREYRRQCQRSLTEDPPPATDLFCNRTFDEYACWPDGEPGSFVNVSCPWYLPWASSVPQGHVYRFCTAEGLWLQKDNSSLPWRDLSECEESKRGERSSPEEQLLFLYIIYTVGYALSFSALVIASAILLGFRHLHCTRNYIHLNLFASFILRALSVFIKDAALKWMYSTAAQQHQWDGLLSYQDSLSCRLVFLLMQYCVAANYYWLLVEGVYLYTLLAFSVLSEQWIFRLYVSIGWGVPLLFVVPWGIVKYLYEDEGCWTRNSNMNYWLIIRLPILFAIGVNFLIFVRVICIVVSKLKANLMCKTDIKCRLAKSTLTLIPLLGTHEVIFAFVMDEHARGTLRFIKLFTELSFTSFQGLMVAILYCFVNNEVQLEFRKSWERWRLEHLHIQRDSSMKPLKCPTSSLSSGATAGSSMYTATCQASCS
# TEST_NAME: Human GLP-1 receptor transfected cell assay (MRE/CRE-luciferase reporter gene, agonist activity)
# Type: cell-based
# EXPERIMENTAL_CONDITIONS: 6 h; concentration 3 μM; read-out: Activity (agonist), percentage of the activity of the control

# COMPOUND, activation at 3 µM
records = [
    ("Cc1ccc(CN2CCN(S(=O)(=O)NC(Cc3ccc(-c4noc(-c5ccc(NC(=O)OC(C)(C)C)cc5)n4)c(F)c3)C(=O)O)CC2)cc1 (stereo not drawn)", "> 60%"),
    ("CC(C)Oc1ccc(-c2ccc(C(=O)N[C@H](Cc3ccc(-c4noc(-c5ccc(NC(=O)OC(C)(C)C)cc5)n4)c(F)c3)C(=O)O)o2)cc1", "40 to 60%"),
    ("Cc1ccc(-c2ccc(C(=O)N[C@H](Cc3cc(C)cc(-c4noc(-c5ccc(NC(=O)OC(C)(C)C)cc5)n4)c3)C(=O)O)o2)cc1", "40 to 60%"),
]

---

# EXPERIMENTAL_SYSTEM: human GLP1R (Homo sapiens)
# Construct: expressed in transfected cells; host or cells: CHO cells (ATCC), transient transfection with pCMV-human GLP1R
# TEST_NAME: Human GLP-1 receptor transfected cell assay (MRE/CRE-luciferase reporter gene, agonist activity)
# Assay type: cell-based
# EXPERIMENTAL_CONDITIONS: 6 h; concentration 10 μM; read-out: Activity (agonist), percentage of the activity of the control
Quick reference: activation at 10 µM of the listed items.
EXPERIMENTAL_READOUT: activation at 10 µM

# MOLECULE, EXPERIMENTAL_SYSTEM, REPORTED_MEASUREMENT
records = [
    ("Cc1ccc(-c2ccc(C(=O)NC(Cc3ccc(C#Cc4ccc(NC(=O)OC(C)(C)C)cc4)c(F)c3)C(=O)O)o2)cc1 (stereo not drawn) [Compound 5E]", "human GLP1R (Homo sapiens)", "> 60%"),
    ("Cc1ccc(-c2ccc(NC(=O)NC(Cc3ccc(-c4noc(-c5ccc(NC(=O)OC(C)(C)C)cc5)n4)c(F)c3)C(=O)O)nc2)cc1Cl (stereo not drawn) [Compound 4Z]", "human GLP1R (Homo sapiens)", "40 to 60%"),
    ("CC(C)(C)OC(=O)Nc1ccc(-c2nc(-c3ccc(CC(NC(=O)c4coc(-c5ccc(Cl)cc5)n4)C(=O)O)cc3F)no2)cc1 (stereo not drawn) [Compound 3H]", "human GLP1R (Homo sapiens)", "20 to 40%"),
    ("CC(C)(C)OC(=O)Nc1ccc(-c2nc(-c3ccc(CC(NC(=O)c4cn(Cc5ccc(F)c(F)c5)nn4)C(=O)O)cc3F)no2)cc1 (stereo not drawn) [Compound 3C]", "human GLP1R (Homo sapiens)", "> 60%"),
    ("CC(C)(C)OC(=O)Nc1ccc(-c2nc(-c3ccc(CC(NC(=O)c4cnc(-c5ccccc5)[nH]4)C(=O)O)cc3F)no2)cc1 (stereo not drawn) [Compound 1Y]", "human GLP1R (Homo sapiens)", "> 60%"),
    ("CC(C)(C)OC(=O)Nc1ccc(-c2nc(-c3ccc(CC(NC(=O)c4cccc(-c5ccc(Cl)cc5)c4)C(=O)O)cc3F)no2)cc1 (stereo not drawn) [Compound 2G]", "human GLP1R (Homo sapiens)", "40 to 60%"),
]

Cited source for all entries: patent US8748412B2
